src = patent US20120189639A1

Target: T1, human GITR on naïve CD4+ T cells (human, UniProt Q9Y5U5 26-241)
T1 sequence: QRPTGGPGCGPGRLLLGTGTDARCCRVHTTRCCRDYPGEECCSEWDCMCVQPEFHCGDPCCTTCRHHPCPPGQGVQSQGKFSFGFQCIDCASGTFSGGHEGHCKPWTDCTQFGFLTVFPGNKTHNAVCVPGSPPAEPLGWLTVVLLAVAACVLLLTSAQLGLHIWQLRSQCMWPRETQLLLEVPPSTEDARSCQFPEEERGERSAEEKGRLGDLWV
Test: cell-based or functional assay
Property: proliferation of naïve CD4+ T cells, mean, at 0.9 ng/mL Ab
Please respond with just the number, no unit label.

Below, 2 binders whose answers are already recorded.
{"Binder": "49A1 (antibody, V domains shown, Parental rodent anti-human GITR monoclonal antibody from a hybridoma; kappa VL; also called 49A1.B1) VH: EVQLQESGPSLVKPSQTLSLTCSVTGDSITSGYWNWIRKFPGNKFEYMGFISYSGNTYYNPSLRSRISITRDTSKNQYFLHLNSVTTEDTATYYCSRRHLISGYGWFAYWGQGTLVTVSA VL: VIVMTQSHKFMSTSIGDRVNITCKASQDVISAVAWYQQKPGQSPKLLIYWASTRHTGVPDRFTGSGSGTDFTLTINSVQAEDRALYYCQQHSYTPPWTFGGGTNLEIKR", "Val": 54100}
{"Binder": "35D8 (antibody, V domains shown, Parental rodent anti-human GITR monoclonal antibody from a hybridoma; kappa VL; also called 35D8.B10) VH: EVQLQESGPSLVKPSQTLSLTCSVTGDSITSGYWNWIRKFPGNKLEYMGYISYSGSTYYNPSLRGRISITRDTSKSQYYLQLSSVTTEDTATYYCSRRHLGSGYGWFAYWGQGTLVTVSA VL: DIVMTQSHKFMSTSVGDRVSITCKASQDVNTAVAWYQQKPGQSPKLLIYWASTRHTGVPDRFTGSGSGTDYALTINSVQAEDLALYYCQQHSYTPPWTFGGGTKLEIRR", "Val": 50700}

Consider the additional binder presented here.
Find the measured proliferation of naïve CD4+ T cells, mean, at 0.9 ng/mL Ab of 9E5 (antibody, V domains shown, Parental rodent anti-human GITR monoclonal antibody from a hybridoma; kappa VL; also called 9E5.C1) VH: QVTLKESGPGILQPSQTLSLTCTFSGFSLSTYGVGVGWIRQPSGKGLEWLANIWWDDDNYYNPSLIHRLTVSKDTSNNQAFLKITNVDTAETATYYCAQIKEPRDWFFEFWGPGTMVSVSS VL: DIQMTQTPSSMPASLGERVTIFCRASQGVNNFLTWYQQKPDGTIKPLIFYTSNLQSGVPSRFSGSGSGTDYSLSISSLEPEDFAMYYCQQYHGFPNTFGAGTKLELKR and report it.
60900
